- Assay System: recombinant human BACE1 (rhBACE1) (human, UniProt P56817 22-457, limits assumed)
- Sequence (P56817 22-457 limits assumed): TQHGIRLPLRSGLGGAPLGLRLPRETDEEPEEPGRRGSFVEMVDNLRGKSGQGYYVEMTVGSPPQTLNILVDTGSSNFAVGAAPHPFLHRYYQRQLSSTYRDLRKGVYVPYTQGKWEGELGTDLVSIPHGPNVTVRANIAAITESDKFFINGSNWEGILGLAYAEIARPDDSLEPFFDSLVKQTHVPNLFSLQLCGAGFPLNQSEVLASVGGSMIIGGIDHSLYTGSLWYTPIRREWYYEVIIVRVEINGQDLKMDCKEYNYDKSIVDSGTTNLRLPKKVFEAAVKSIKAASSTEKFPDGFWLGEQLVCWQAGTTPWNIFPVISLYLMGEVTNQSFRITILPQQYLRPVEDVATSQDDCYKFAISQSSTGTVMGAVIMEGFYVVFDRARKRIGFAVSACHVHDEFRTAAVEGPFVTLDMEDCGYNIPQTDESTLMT
- Protocol Details: FP competition binding; 12 nM rhBACE1, competitor probe 5-TAMRA-BACE020
pIC50: −log10 of the molar value. Positions of bridges follow the written chain, without caps; N, C: chain ends.
Kindly return Yes if reported pIC50 is no lower than 7; return No if it is lower.

Enquiry: Hello, I need to know if Ac-NEESMYCRLLGIGCA-NH2 (disulfide 7-14 (inferred), also called BACE020 Gly15 to Ala) [BACE054] has measured pIC50 not below 7. Thanks!
Return: Yes

Enquiry: Hello, I need to know if Ac-ESMYCKLLGIGCG-NH2 (disulfide 5-12 (inferred), also called BACE030 with Arg to lysine) [BACE058] has measured pIC50 not below 7. Thanks!
Return: No

Enquiry: Hello, I need to know if Ac-NEESAYCRLLGIGCG-NH2 (disulfide 7-14 (inferred), also called BACE020 Met5 to Ala) [BACE046] has measured pIC50 not below 7. Thanks!
Return: No

Enquiry: Hello, I need to know if Ac-AEESMYCRLLGIGCG-NH2 (disulfide 7-14 (inferred), also called BACE020 position 1 to Ala) [BACE042] has measured pIC50 not below 7. Thanks!
Return: Yes

Enquiry: Hello, I need to know if Ac-NEESMYCRLLGAGCG-NH2 (disulfide 7-14 (inferred), also called BACE020 Ile12 to Ala) [BACE052] has measured pIC50 not below 7. Thanks!
Return: Yes

Enquiry: Hello, I need to know if Ac-NEESMYCRLLGIACG-NH2 (disulfide 7-14 (inferred), also called BACE020 Gly13 to Ala) [BACE053] has measured pIC50 not below 7. Thanks!
Return: Yes

Enquiry: Hello, I need to know if Ac-NEESMYCRALGIGCG-NH2 (disulfide 7-14 (inferred), also called BACE020 Leu9 to Ala) [BACE049] has measured pIC50 not below 7. Thanks!
Return: No

Enquiry: Hello, I need to know if Ac-NELSPYCRLMGLGCD-NH2 (disulfide 7-14 (inferred), also called BACE-19) [BACE019] has measured pIC50 not below 7. Thanks!
Return: Yes

Enquiry: Hello, I need to know if Ac-SGPYFIEYMSAV-NH2 (also called BACE10) [BACE010 (Ac-SGPYFIEYMSAV-NH2)] has measured pIC50 not below 7. Thanks!
Return: No

Enquiry: Hello, I need to know if Ac-PEESLYCRLLALGCG-NH2 (disulfide 7-14 (inferred), also called BACE-21) [BACE021] has measured pIC50 not below 7. Thanks!
Return: Yes
